Answer each item with its documented IC50.
molecular target: Angiotensin-converting enzyme 2 (Homo sapiens, UniProt Q9BYF1); experiment: Inhibition of his-tagged SARS-COV2 S-RBD binding to C-terminal Fc-tagged human ACE2 expressed in HEK293 cells incubated for 2 hrs by Alphascreen assay
Sequence (Q9BYF1 whole entry): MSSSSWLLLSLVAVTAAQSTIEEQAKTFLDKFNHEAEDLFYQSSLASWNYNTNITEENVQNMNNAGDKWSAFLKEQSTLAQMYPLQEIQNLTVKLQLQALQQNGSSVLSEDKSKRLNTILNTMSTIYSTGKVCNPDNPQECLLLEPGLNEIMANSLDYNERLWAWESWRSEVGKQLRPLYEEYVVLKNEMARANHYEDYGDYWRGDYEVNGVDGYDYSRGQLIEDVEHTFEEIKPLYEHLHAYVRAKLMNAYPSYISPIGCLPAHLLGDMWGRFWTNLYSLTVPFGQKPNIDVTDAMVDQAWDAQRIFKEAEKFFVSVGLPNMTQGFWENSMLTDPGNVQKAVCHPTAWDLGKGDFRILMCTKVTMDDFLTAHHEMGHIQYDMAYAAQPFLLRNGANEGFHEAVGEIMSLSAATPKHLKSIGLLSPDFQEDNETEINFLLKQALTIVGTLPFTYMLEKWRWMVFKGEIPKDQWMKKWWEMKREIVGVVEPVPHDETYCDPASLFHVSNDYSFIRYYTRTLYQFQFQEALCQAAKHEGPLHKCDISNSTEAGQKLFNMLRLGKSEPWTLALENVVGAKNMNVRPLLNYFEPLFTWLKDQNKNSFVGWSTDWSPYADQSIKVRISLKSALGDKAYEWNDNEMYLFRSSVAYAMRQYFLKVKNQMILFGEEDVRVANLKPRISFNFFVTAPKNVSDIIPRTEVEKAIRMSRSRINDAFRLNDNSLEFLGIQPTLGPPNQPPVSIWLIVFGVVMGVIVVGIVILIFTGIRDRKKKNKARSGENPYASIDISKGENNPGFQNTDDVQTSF
Write it as a number; the unit µM goes unstated.

-- ask Could you share which IC50 value was measured for COc1cc(OC(C)=O)c(-c2c(OC(C)=O)cc(OC)c3c2C=C[C@@](C)(CCC2=C(C)CCCC2(C)C)O3)c2c1O[C@](C)(CCC1=C(C)CCCC1(C)C)C=C2 ?
-- reply 65

-- ask Fill blank: measured IC50 of the compound COc1cc(O)c(-c2c(O)cc(OC)c3c2C=C[C@](C)(CCC2=C(C)CCCC2(C)C)O3)c2c1O[C@](C)(CCC1=C(C)CCCC1(C)C)C=C2 is ____.
-- reply 1

-- ask Fill in the blank: the reported IC50 of COc1cc(OC(C)=O)c(-c2c(OC(C)=O)cc(OC)c3c2C=C[C@](C)(CCC2=C(C)CCCC2(C)C)O3)c2c1O[C@](C)(CCC1=C(C)CCCC1(C)C)C=C2 is ____.
-- reply 7.3

-- ask Query: IC50; subject: Oc1ccc([C@@H]2c3c(O)cc(O)cc3[C@@H]3c4c(cc(O)cc4[C@H]2[C@@H]2c4cc(O)cc5c4[C@@H](c4cc(O)cc(O)c4[C@H]2c2ccc(O)cc2)[C@H](c2ccc(O)cc2)O5)O[C@H]3c2ccc(O)cc2)cc1
-- reply 0.25

-- ask May I ask what IC50 has been recorded for COc1cc(OC(C)=O)cc2c1OC(C)(CCC1=C(C)CCCC1(C)C)C=C2 (stereo not given) ?
-- reply 63

* * *

Give IC50 for every item shown.
target: Programmed cell death protein 1/Programmed cell death 1 ligand 1 (Homo sapiens, UniProt Q15116+Q9NZQ7); experiment: Inhibition of C-terminal his tagged human PD-1/human Fc tagged PDL-1 interaction expressed in HEK293 cells incubated for 2 hrs AlphaScreen assay
Sequence (Q15116 whole entry): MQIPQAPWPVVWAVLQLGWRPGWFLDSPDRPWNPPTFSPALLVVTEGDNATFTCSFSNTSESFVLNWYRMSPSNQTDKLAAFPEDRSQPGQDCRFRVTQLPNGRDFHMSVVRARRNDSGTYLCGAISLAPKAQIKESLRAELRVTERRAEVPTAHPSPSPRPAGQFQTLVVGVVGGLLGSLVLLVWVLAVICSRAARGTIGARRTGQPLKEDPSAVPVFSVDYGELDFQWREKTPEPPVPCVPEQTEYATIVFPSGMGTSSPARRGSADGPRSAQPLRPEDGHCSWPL
Sequence (Q9NZQ7 whole entry): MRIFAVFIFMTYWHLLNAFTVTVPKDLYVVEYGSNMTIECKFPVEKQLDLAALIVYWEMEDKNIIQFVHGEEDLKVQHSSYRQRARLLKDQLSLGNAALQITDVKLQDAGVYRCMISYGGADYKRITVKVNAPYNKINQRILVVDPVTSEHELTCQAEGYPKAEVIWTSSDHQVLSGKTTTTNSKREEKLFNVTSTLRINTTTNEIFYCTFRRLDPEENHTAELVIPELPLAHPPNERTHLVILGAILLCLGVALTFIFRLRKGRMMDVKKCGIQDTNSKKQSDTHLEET

-- ask Fill blank: measured IC50 of the compound COc1cc(OC(C)=O)c(-c2c(OC(C)=O)cc(OC)c3c2C=C[C@@](C)(CCC2=C(C)CCCC2(C)C)O3)c2c1O[C@](C)(CCC1=C(C)CCCC1(C)C)C=C2 is ____.
-- reply > 50 µM

-- ask Given the entry COc1cc(OC(C)=O)cc2c1OC(C)(CCC1=C(C)CCCC1(C)C)C=C2 (centres undefined) , report its measured IC50.
-- reply 66 µM

-- ask Name the recorded IC50 for COc1cc(O)c(-c2c(O)cc(OC)c3c2C=C[C@](C)(CCC2=C(C)CCCC2(C)C)O3)c2c1O[C@](C)(CCC1=C(C)CCCC1(C)C)C=C2 .
-- reply 6 µM

-- ask Fill in: IC50 of COc1cc(OC(C)=O)c(-c2c(OC(C)=O)cc(OC)c3c2C=C[C@](C)(CCC2=C(C)CCCC2(C)C)O3)c2c1O[C@](C)(CCC1=C(C)CCCC1(C)C)C=C2 is ___
-- reply 37 µM
